Assay: Pharmacokinetics (tmax) after intravenous and nebulizer inhalation administration, rat
Format: in vivo
Details: blood, inhaled or intranasal, 15 mg/kg, inhalation, 15 mg/kg, 45 minutes exposure, multiple dose (14 day), tmax minus duration of exposure, read-out: App. calc. tmax (converted)

Smiles String | Result Units | Tmax at 14 day
CCCCCc1cc(O)c2c(c1)OC(C)(C)[C@@H]1CCC(C)=C[C@@H]21 | min | 1.2

---

Test: Pharmacokinetics (tmax) after intravenous and nebulizer inhalation administration, rat
Assay type: in vivo
Settings: blood, iv, 2 mg/kg, IV, 2 mg/kg, single dose, tmax minus duration of exposure, read-out: App. calc. tmax (converted)
Reported Endpoint: Tmax (min)

Smiles String | Reported Endpoint | Recorded Number
CCCCCc1cc(O)c2c(c1)OC(C)(C)[C@@H]1CCC(C)=C[C@@H]21 | Tmax | 2.1
